test system: Staphylococcus aureus; assay: Antibacterial activity against Methicillin-resistant Staphylococcus aureus N 315 after 24 hrs by two-fold serial dilution method; format: functional; settings: N 315, 24 h
Some compounds, each annotated with its measured MIC.
Unit µg/mL implied. Number only.

INSERT INTO results (compound, measured_property, measured) VALUES
  ('COC(=O)CNP(=O)(OCCN(C)c1cc(=O)oc2cc(C)ccc12)Oc1ccccc1 (stereo not given)', 'MIC', 256),
  ('COC(=O)CNP(=O)(OCCN(C)c1cc(=O)oc2c(C)cccc12)Oc1ccccc1 (stereo not given)', 'MIC', 256),
  ('COC(=O)CNP(=O)(OCCN(C)c1cc(=O)oc2ccccc12)Oc1ccccc1 (stereo not given)', 'MIC', 256),
  ('COC(=O)CNP(=O)(OCCN(C)c1cc(=O)oc2ccc(C(C)(C)C)cc12)Oc1ccccc1 (stereo not given)', 'MIC', 8);

Field MIC (system: Staphylococcus aureus) for entry COC(=O)C(Cc1ccccc1)NP(=O)(OCCN(C)c1cc(=O)oc2ccc(C)cc12)Oc1ccccc1 (stereo not given) = 128
